Test: Surface tension and critical micelle concentration (CMC) of aqueous surfactant solutions
Type: physicochemical
Details: Table 3; deionized water, at CMC
Readout Label: Surf Tens. (surface tension at the CMC) (dynes/cm)
Number only, in dynes/cm; omit the unit.

Compound | Recorded Value
O=C([O-])CC[N+]1(CCCNC(=O)C(F)(C(F)(F)F)C(F)(F)C(F)(F)C(F)(F)C(F)(F)C(F)(F)C(F)(F)C(F)(F)F)CCOCC1 (centres unmarked) [Example K3] | 19.2

Continue with the compound presented below.
What value of Surf Tens. (surface tension at the CMC) has been recorded for this entry: C[N+](C)([O-])CCCNC(=O)C(F)(C(F)(F)F)C(F)(F)C(F)(F)C(F)(F)C(F)(F)C(F)(F)C(F)(F)C(F)(F)C(F)(F)F (centres unmarked) [Example E4, C8 F17 CF(CF3)CONH(CH2)3 N^+ (CH3)2 O^-]
16.5

* * *

List of temperature for 90% loss values.
Experiment: Thermogravimetric analysis of neat perfluorocarboxylate salts
Type: physicochemical
Conditions: neat salt, 10° C./min, nitrogen
Report the value in °C with no unit label.

Recorded results for 6 compounds are shown here.
Compound | Readout Label | Endpoint Unit | Recorded Value
O=C(O)C(F)(C(F)(F)C(F)(F)F)C(F)(F)C(F)(F)C(F)(F)C(F)(F)C(F)(F)C(F)(F)F (stereo not shown) | temperature for 90% loss | °C | 188
O=C(O)C(F)(C(F)(F)F)C(F)(F)C(F)(F)C(F)(F)C(F)(F)C(F)(F)C(F)(F)C(F)(F)C(F)(F)F (stereo not shown) | temperature for 90% loss | °C | 184
O=C(O)C(F)(F)C(F)(F)C(F)(F)C(F)(F)C(F)(F)C(F)(F)C(F)(F)F | temperature for 90% loss | °C | 202
O=C(O)C(F)(C(F)(F)F)C(F)(F)C(F)(F)C(F)(F)C(F)(F)C(F)(F)C(F)(F)C(F)(F)C(F)(F)C(F)(F)C(F)(F)F (stereo not shown) | temperature for 90% loss | °C | 188
O=C(O)C1(F)C(F)(F)C(F)(F)C(F)(F)C(F)(F)C1(F)F [reference compound] | temperature for 90% loss | °C | 120
O=C(O)C(F)(C(F)(F)F)C(F)(F)C(F)(F)C(F)(F)C(F)(F)C(F)(F)C(F)(F)F (stereo not shown) | temperature for 90% loss | °C | 193

Name the reported temperature for 90% loss value associated with the compound O=C(O)C(F)(C(F)(F)F)C(F)(F)C(F)(F)C(F)(F)C(F)(F)C(F)(F)C(F)(F)C(F)(F)F (stereo not shown)
174

* * *

Surf. Tens. (surface tension at the CMC): recorded values
Test: Surface tension and critical micelle concentration (CMC) of aqueous surfactant solutions
Assay type: physicochemical
Conditions: Table 5; deionized water, at CMC
Hi! Could you send only the number? It should be in dynes/cm, unit omitted.

The cases that follow already have their Surf. Tens. (surface tension at the CMC) on record.
Molecule | Endpoint Unit | Recorded Value
O=C(O)C(F)(C(F)(F)F)C(F)(F)C(F)(F)C(F)(F)C(F)(F)C(F)(F)C(F)(F)F (stereo not drawn) [Example M25, C6 F13 CF(CF3)COO^- Na^+] | dynes/cm | 19.8
O=C(O)C(F)(C(F)(F)F)C(F)(F)C(F)(F)C(F)(F)C(F)(F)C(F)(F)C(F)(F)C(F)(F)C(F)(F)C(F)(F)C(F)(F)F (stereo not drawn) | dynes/cm | 14.8
O=C(O)C(F)(C(F)(F)F)C(F)(F)C(F)(F)C(F)(F)C(F)(F)C(F)(F)F (stereo not drawn) [Example M15, C5 F11 CF(CF3)COO^- H4 N^+] | dynes/cm | 22.1
O=C(O)C(F)(F)C(F)(F)C(F)(F)C(F)(F)C(F)(F)C(F)(F)C(F)(F)F | dynes/cm | 21.5
O=C(O)C(F)(C(F)(F)F)C(F)(F)C(F)(F)C(F)(F)C(F)(F)C(F)(F)C(F)(F)C(F)(F)F (stereo not drawn) [Example M26, C7 F15 CF(CF3)COO^- Na^+] | dynes/cm | 19.4
O=C(O)C(F)(C(F)(F)F)C(F)(F)C(F)(F)C(F)(F)C(F)(F)C(F)(F)C(F)(F)C(F)(F)F (stereo not drawn) [Example M14, C7 F15 CF(CF3)COO^- H4 N^+] | dynes/cm | 16.5

Any idea what its Surf. Tens. (surface tension at the CMC) is? The molecule is O=C(O)C(F)(C(F)(F)F)C(F)(F)C(F)(F)C(F)(F)C(F)(F)C(F)(F)C(F)(F)F (stereo not drawn) [Example M22, C6 F13 CF(CF3)COO^- K^+]
17.5

So what's the measured Surf. Tens. (surface tension at the CMC) for this one? O=C(O)C(F)(C(F)(F)F)C(F)(F)C(F)(F)C(F)(F)C(F)(F)C(F)(F)C(F)(F)C(F)(F)C(F)(F)F (stereo not drawn) [Example M24, C8 F17 CF(CF3)COO^- K^+]
16.4

* * *

Reported Surf Tens. (surface tension at the CMC) values are given for each entry in this list.
Experiment: Surface tension and critical micelle concentration (CMC) of aqueous surfactant solutions
Type: physicochemical
Details: Table 3; deionized water, at CMC
Answer shape: numeric part, then the unit.

For orientation, consider the following solved cases.
Compound | Readout Label | Recorded Value
C[N+](C)([O-])CCCN(CCO)C(=O)C(F)(C(F)(F)F)C(F)(F)C(F)(F)C(F)(F)C(F)(F)C(F)(F)C(F)(F)C(F)(F)F (stereo not drawn) | Surf Tens. (surface tension at the CMC) | 16.6 dynes/cm
O=C(NCCC[N+]1(CCO)CCOCC1)C(F)(C(F)(F)F)C(F)(F)C(F)(F)C(F)(F)C(F)(F)C(F)(F)C(F)(F)C(F)(F)F (stereo not drawn) | Surf Tens. (surface tension at the CMC) | 20.8 dynes/cm

Continue with the next compound.
Suppose we examine the compound C[N+](C)([O-])CCCNC(=O)C(F)(C(F)(F)F)C(F)(F)C(F)(F)C(F)(F)C(F)(F)C(F)(F)C(F)(F)C(F)(F)F (stereo not drawn) [Example E1, C7 F15 CF(CF3)CONH(CH2)3 N^+ (CH3)2 O^-] ; what Surf Tens. (surface tension at the CMC) value has been reported?
16.3 dynes/cm

* * *

Below, each entry is listed with its recorded Surf. Tens. (surface tension at the CMC).
Assay: Surface tension and critical micelle concentration (CMC) of aqueous surfactant solutions
Format: physicochemical
Conditions: Table 5; deionized water, at CMC
Note: unit dynes/cm is implicit; provide only the numeric part.

Compound | Readout Label | Recorded Value
O=C(O)C(F)(C(F)(F)F)C(F)(F)C(F)(F)C(F)(F)C(F)(F)C(F)(F)C(F)(F)F (stereo not shown) [Example M16, C6 F13 CF(CF3)COO^- H4 N^+] | Surf. Tens. (surface tension at the CMC) | 17.9
O=C(O)C(F)(C(F)(F)F)C(F)(F)C(F)(F)C(F)(F)C(F)(F)C(F)(F)C(F)(F)C(F)(F)F (stereo not shown) [Example M27, C7 F15 CF(CF3)COO^- Li^+] | Surf. Tens. (surface tension at the CMC) | 24.1
O=C(O)C(F)(C(F)(F)F)C(F)(F)C(F)(F)C(F)(F)C(F)(F)C(F)(F)C(F)(F)C(F)(F)F (stereo not shown) [Example M30] | Surf. Tens. (surface tension at the CMC) | 16.2

Could you tell me which Surf. Tens. (surface tension at the CMC) is on file for O=C(O)C(F)(C(F)(F)F)C(F)(F)C(F)(F)C(F)(F)C(F)(F)C(F)(F)C(F)(F)C(F)(F)F (stereo not shown) [Example M20, C7 F15 CF(CF3)COO^- H3 N^+ C2 H4 OH] ?
15.0
